Every entry's value here was drawn from patent US10045968B2.

MEASURED_ATTRIBUTE: melting point

INSERT INTO results (molecule, endpoint_result) VALUES
  ('CCCCOCCOc1ccc(-c2ccc3c(c2)C=C(C(=O)Nc2ccc([S+]([O-])Cc4nccn4CCCC(=O)OCC)cc2)CCCN3CC(C)C)cc1 (centres unmarked)', '133.5 to 134.5 °C');

Give melting point for each of the items listed below.
1. CCCCOCCOc1ccc(-c2ccc3c(c2)C=C(C(=O)Nc2ccc([S+]([O-])Cc4nncn4CCC)cc2)CCCN3CC(C)C)cc1 (centres unmarked)
2. CCCCOCCOc1ccc(-c2ccc3c(c2)C=C(C(=O)Nc2ccc([S+]([O-])Cc4nncn4CCC)cc2)CCCN3CCC)cc1 (centres unmarked)
3. CCCCOCCOc1ccc(-c2ccc3c(c2)C=C(C(=O)Nc2ccc(SCc4nccn4CCCC(=O)OCC)cc2)CCCN3CC(C)C)cc1
4. CCCCOCCOc1ccc(-c2ccc3c(c2)C=C(C(=O)Nc2ccc(SCc4nncn4CCC)cc2)CCCN3CC(C)C)cc1

Ans:
1. 105 to 110 °C
2. 167 to 170 °C
3. 130 to 131 °C
4. 122 to 126 °C

====

# TARGET_OR_SYSTEM: human CCR5 (Homo sapiens, UniProt P51681)
# Construct: expressed in transfected cells; host or cells: CHO-K1 cells, stably transfected with pCKR5 (pcDNA3.1 backbone), Geneticin-selected
# Sequence (P51681 whole entry): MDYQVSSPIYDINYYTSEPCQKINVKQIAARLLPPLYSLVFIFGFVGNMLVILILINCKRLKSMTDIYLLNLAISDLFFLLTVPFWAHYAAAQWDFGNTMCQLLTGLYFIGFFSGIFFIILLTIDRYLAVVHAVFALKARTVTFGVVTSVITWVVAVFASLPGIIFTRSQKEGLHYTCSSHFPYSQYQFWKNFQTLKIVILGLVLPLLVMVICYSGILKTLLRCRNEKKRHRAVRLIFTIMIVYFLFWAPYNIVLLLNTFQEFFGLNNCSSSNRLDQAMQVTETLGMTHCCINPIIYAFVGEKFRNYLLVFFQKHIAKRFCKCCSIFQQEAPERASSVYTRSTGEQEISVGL
# PROCEDURE_TEXT: Inhibition of [125I]-RANTES binding to CCR5/CHO cells (CCR5 antagonist activity)
# CONDITION_PARAMETERS: 40 min, test compound 1 μM, 100 pM [125I]-RANTES as ligand, room temperature, read-out: Binding Inhibitory Ratio (%)
What inhibition at 1 µM was measured for each of the following?
One number for each entry, in %.

Reference set, count: 3
INSERT INTO measurements (molecule, endpoint_result) VALUES
  ('CCCCOCCOc1ccc(-c2ccc3c(c2)C=C(C(=O)Nc2ccc(CN(C)C4CCOCC4)cc2)CCCN3CCC)cc1', 96),
  ('CCCCOCCOc1ccc(-c2ccc3c(c2)C=C(C(=O)Nc2ccc(CN(C)C4CCOCC4)cc2)CCCO3)cc1', 94),
  ('CCCCOCCOc1ccc(-c2ccc3c(c2)C=C(C(=O)Nc2ccc([S+]([O-])Cc4cncn4CCC)cc2)CCCN3c2ccccc2)cc1 (stereo not drawn)', 100);

# per-item lookup of inhibition at 1 µM; items listed below
1. CCCCOCCOc1ccc(-c2ccc3c(c2)C=C(C(=O)Nc2ccc(SCc4cncn4CCC)c(C)c2)CCCN3CC(C)C)cc1
2. CCCCOCCOc1ccc(-c2ccc3c(c2)C=C(C(=O)Nc2ccc(SCc4c(C)ncn4CCC)cc2)CCCN3CC(C)C)cc1
3. CCCCOCCOc1ccc(-c2ccc3c(c2)C=C(C(=O)Nc2ccc([S+]([O-])Cc4c(C)ncn4CCC)cc2)CCCN3CC(C)C)cc1 (stereo not drawn)
4. CCCCOCCOc1ccc(-c2ccc3c(c2)C=C(C(=O)Nc2ccc([S+]([O-])Cc4cncn4CCC)cc2)CCCN3Cc2cnn(C)c2)cc1 (single isomer, unassigned; (-))
5. CCCCOCCOc1ccc(-c2ccc3c(c2)C=C(C(=O)Nc2ccc([S+]([O-])Cc4cncn4CCC)c(C)c2)CCCN3CC(C)C)cc1 (stereo not drawn)

Ans:
1. 94
2. 97
3. 100
4. 97
5. 99

Dear colleague, could you send me inhibition at 1 µM for each of the items below? Thanks.
1. CCCCOCCOc1ccc(-c2ccc3c(c2)C=C(C(=O)Nc2ccc([S+]([O-])Cc4nncn4CCC)cc2)CCCN3CC(C)C)cc1 (single isomer, unassigned; (+))
2. CCCCOCCOc1ccc(-c2ccc3c(c2)C=C(C(=O)Nc2ccc([S+]([O-])Cc4cncn4CCC)cc2)CCCN3CC(C)C)cc1 (stereo not drawn)
3. CCCCOCCOc1ccc(-c2ccc3c(c2)C=C(C(=O)Nc2ccc(CN(C)C4CCOCC4)cc2)CCCN3CC(C)C)cc1
4. CCCCOCCOc1ccc(-c2ccc3c(c2)C=C(C(=O)Nc2ccc(SCc4cncn4CCC)cc2)CCCN3CCC)cc1
5. CCCCOCCOc1ccc(-c2ccc3c(c2)C=C(C(=O)Nc2ccc(SCc4nncn4CCC)cc2)CCCN3CC(C)C)cc1

Ans:
[97, 100, 90, 91, 99]

Provide the reported inhibition at 1 µM of each entry below, same order.
1. CCCCOCCOc1ccc(-c2ccc3c(c2)C=C(C(=O)Nc2ccc([S+]([O-])Cc4nccn4CCC)cc2)CCCN3CCC)cc1 (single isomer, unassigned; (-))
2. CCCCOCCOc1ccc(-c2ccc3c(c2)C=C(C(=O)Nc2ccc([S+]([O-])Cc4cncn4CCC)cc2)CCCN3CCC)cc1 (single isomer, unassigned; (-))
3. CCCCOCCOc1ccc(-c2ccc3c(c2)C=C(C(=O)Nc2ccc([S+]([O-])Cc4nncn4CCC)cc2)CCCN3CCC)cc1 (stereo not drawn)
4. CCCCOCCOc1ccc(-c2ccc3c(c2)C=C(C(=O)Nc2ccc(S(=O)(=O)Cc4cncn4CCC)cc2)CCCN3CCC)cc1
5. CCCCOCCOc1ccc(-c2ccc3c(c2)C=C(C(=O)Nc2ccc([S+]([O-])Cc4cncn4CCC)cc2)CCCCN3CC(C)C)cc1 (single isomer, unassigned; (-))

Ans:
98
100
93
86
100

====

Task for the reader: assign each of the following molecules its reported Binding Inhibitory Ratio (%).
# TARGET_OR_SYSTEM: human CCR5 (Homo sapiens)
# Construct: expressed in transfected cells; host or cells: CHO-K1 cells, stably transfected with pCKR5 (pcDNA3.1 backbone), Geneticin-selected
# PROCEDURE_TEXT: Inhibition of [125I]-RANTES binding to CCR5/CHO cells (CCR5 antagonist activity)
# CONDITION_PARAMETERS: test compound 1 μM, 100 pM [125I]-RANTES as ligand, room temperature, 40 minutes
Give bare numbers, in %.

Please review the following examples before continuing.
INSERT INTO measurements (molecule, endpoint_result) VALUES
  ('CCCCOCCOc1ccc(-c2ccc3c(c2)C=C(C(=O)Nc2ccc([S+]([O-])Cc4cncn4CCC)cc2)CCCN3CCC)cc1 (centres unmarked)', 100),
  ('CCCCOCCOc1ccc(-c2ccc3c(c2)C=C(C(=O)Nc2ccc([S+]([O-])Cc4nncn4CCC)cc2)CCCN3CC(C)C)cc1 (single isomer, unassigned; (-))', 91),
  ('C=C(C)CN1CCCC(C(=O)Nc2ccc([S+]([O-])Cc3cncn3CCC)cc2)=Cc2cc(-c3ccc(OCCOCCCC)cc3)ccc21 (single isomer, unassigned; (-))', 97),
  ('CCCCOCCOc1ccc(-c2ccc3c(c2)C=C(C(=O)Nc2ccc([S+]([O-])Cc4cncn4CCC)cc2)CCCN3CC(C)C)cc1.CS(=O)(=O)O (single isomer, unassigned; (-))', 98);

Q: Returns the measured Binding Inhibitory Ratio (%) for the input molecule. Input: CCCCOCCOc1ccc(-c2ccc3c(c2)C=C(C(=O)Nc2ccc([S+]([O-])Cc4nncn4CCC)cc2)CCCN3CCC)cc1 (single isomer, unassigned; (+)) [Compound 53]
Ans: 100
